Source of measurements: paper PMC5321434

Experiment: Neutral red cytotoxicity assay
Assay type: cell-based, mouse
Conditions: mouse, CMT-93 rectal epithelial cells; resynthesised compound, neutral red cytotoxicity; read-out: ResynCytotoxicityNeutralRed(EC50uM)
Measured EC50 at 72 h, listed per entry.
Your answer should be a plain number; it is taken to be in µM.

INSERT INTO results (entry_smiles, recorded_result) VALUES
  ('O=C1COCc2cc(-c3cccnc3)ccc2N1Cc1ccc(C(F)(F)F)cc1', 60);

Okay, next one:
Check the records and state EC50 at 72 h for "Cc1ccc(CN2C(=O)COCc3cc(Br)ccc32)cc1" 47

* * *

Measured EC50, listed per entry.
System: adult T. muris
Assay: Ex vivo adult T. muris automated motility assay (primary/secondary screen at 100 μM and dose-response)
Set-up: species or system Trichuris muris
Details: Trichuris muris; resynthesised compound, adult T. muris paralysis; read-out: ResynActivityTmurisAdultParalysis(EC50uM)
Reply with a number, then the unit it belongs to.

These solved cases illustrate the format of a correct answer.
INSERT INTO measurements (entry_smiles, tested_system, recorded_result) VALUES
  ('Cc1ccc(CN2C(=O)COCc3cc(Br)ccc32)cc1', 'adult T. muris', '35 µM'),
  ('O=C1COCc2cc(-c3cccnc3)ccc2N1Cc1ccc(C(F)(F)F)cc1', 'adult T. muris', '26 µM'),
  ('O=C1COCc2cc(-c3cccnc3)ccc2N1CC1CCCCC1', 'adult T. muris', '52 µM');

Provide adult T. muris EC50 reading for "Cc1ccc(CN2C(=O)COCc3cc(-c4ccncc4)ccc32)cc1" . 50 µM

Provide adult T. muris EC50 reading for "Cc1ccc(CN2C(=O)COCc3cc(-c4cccnc4)ccc32)cc1" . 57 µM

* * *

Test: Neutral red cytotoxicity assay
Type: cell-based, mouse
Conditions: mouse, CMT-93 rectal epithelial cells; resynthesised compound, neutral red cytotoxicity; read-out: ResynCytotoxicityNeutralRed(EC50uM)
Measured EC50 at 72 h, listed per entry.

INSERT INTO assay_data (entry_smiles, assay_endpoint, recorded_result) VALUES
  ('Cc1ccc(CN2C(=O)COCc3cc(-c4cccnc4)ccc32)cc1', 'EC50 at 72 h', '> 100 µM'),
  ('Cc1ccc(CN2C(=O)COCc3cc(-c4ccncc4)ccc32)cc1', 'EC50 at 72 h', '> 100 µM');

Check the records and state EC50 at 72 h for "O=C1COCc2cc(-c3cccnc3)ccc2N1CC1CCCCC1" > 100 µM
